B1: Storkhead-box protein 2, residues 64 to 141; numbered along this chain, Q9P2F5 (parent)
chain: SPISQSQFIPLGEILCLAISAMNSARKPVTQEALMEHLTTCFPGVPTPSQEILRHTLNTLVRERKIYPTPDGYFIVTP

Variants of: B1
Test: abundance fitness (aPCA) (normalised: wild type 0, dead -1); higher = more abundant; growth selection in yeast, the domain comes from the species named
Settings: Homo sapiens
READOUT_TYPE: abundance fitness
// keep it numeric: no unit symbol after the value

Examples with their reported abundance fitness follow.
stdin: Need abundance fitness of `N23G` , thanks.
stdout: -0.126

stdin: Would you mind doing `L60P` as well?
stdout: -1.07

stdin: Would you mind doing `A25D` as well?
stdout: 0.018

stdin: Would you mind doing `T77D` as well?
stdout: 0.077

stdin: Would you mind doing `F74G` as well?
stdout: 0.052

---
stdin: Need abundance fitness of `Y67F` , thanks.
stdout: -0.021

stdin: Would you mind doing `H37V` as well?
stdout: -0.48

stdin: Would you mind doing `L17V` as well?
stdout: -0.059
